Assay: Lethal dose determined 0.5 hr post intraperitoneal administration in mice
Format: toxicity, organism-based
Conditions: mouse, in vivo, ip
Reported endpoint: LD50 at 0.5 h

[
  {
    "Molecule": "CN1CCc2ccc3sc4ccccc4c3c2C1.Cl",
    "Value observed": "> 80 mg/kg"
  },
  {
    "Molecule": "Cl.c1ccc2c(c1)sc1ccc3c(c12)CNCC3",
    "Value observed": "< 320 mg/kg"
  },
  {
    "Molecule": "Cl.c1ccc(CN2CCc3ccc4sc5ccccc5c4c3C2)cc1",
    "Value observed": "> 320 mg/kg"
  }
]

Tell me its LD50 at 0.5 h given [O-][N+]1(Cc2ccccc2)CCc2ccc3sc4ccccc4c3c2C1 (stereo not given) as the entry.
> 320 mg/kg

Please indicate LD50 at 0.5 h recorded for "CN1CCc2cccc(-c3ccccc3)c2C1"
> 320 mg/kg
